- experimentalSystem: HCV NS3 protease genotype 3a (3A-1) (Hepatitis C virus genotype 3a)
- experimentDescription: HCV NS3 protease time-resolved fluorescence (TRF) assay, genotype 3a
- Type: biochemical
- assayConditions: Ki 3a
Each record is given Met if its reported Ki is strictly below 2 nM. Records at or above 2 nM are given Not met.

(Q) API: query returns whether the molecule falls strictly under 2 nM in Ki. Query: C=C[C@@H]1C[C@]1(NC(=O)[C@@H]1C[C@@H]2CN1C(=O)[C@H](C(C)(C)C)NC(=O)O[C@@H]1C[C@H]1CCCCCc1c(nc3ccccc3c1OC1C3COCC1CN(CCOC)C3)O2)C(=O)NS(=O)(=O)C1(C)CC1 (some centres unmarked)
(A) Not met

(Q) Ki strictly < 2 nM for this molecule? C=C[C@@H]1C[C@]1(NC(=O)[C@@H]1C[C@@H]2CN1C(=O)[C@H](C1CCCC1)NC(=O)O[C@@H]1C[C@H]1CC/C=C/Cc1c(nc3ccccc3c1OC)O2)C(=O)NS(=O)(=O)C1CC1
(A) Not met

(Q) Check if Ki falls below 2 nM for C=C[C@@H]1C[C@]1(NC(=O)[C@@H]1C[C@@H]2CN1C(=O)[C@H](C(C)(C)C)NC(=O)O[C@@H]1C[C@H]1CCCCCc1c(nc3ccccc3c1OCCN1CCCC1)O2)C(=O)NS(=O)(=O)C1(C)CC1 .
(A) Met

(Q) Hi there! Is Ki for C=C[C@@H]1C[C@]1(NC(=O)[C@@H]1C[C@@H]2CN1C(=O)[C@H](C1CCCC1)NC(=O)O[C@@H]1CCC[C@H]1CC/C=C/Cc1c(nc3ccccc3c1OCCN(C)C)O2)C(=O)NS(=O)(=O)C1CC1 below 2 nM, do you know?
(A) Not met

(Q) # strict comparison: is reported Ki < 2 nM? input = C=CC1C[C@]1(NC(=O)[C@@H]1C[C@@H]2CN1C(=O)[C@H](C1CCCC1)NC(=O)O[C@@H]1CCC[C@H]1CC/C=C/Cc1c(nc3ccccc3c1OCCCN1CCN(C)CC1)O2)C(=O)NS(=O)(=O)C1CC1 (some centres unmarked)
(A) Not met

(Q) Consider CC1(S(=O)(=O)NC(=O)[C@@]23C[C@H]2/C=C\CCCCC[C@@H]2NC(=O)O[C@@H]4C[C@H]4CCCCCc4c(nc5ccccc5c4OCCN4CCOCC4)O[C@@H]4C[C@@H](C(=O)N3)N(C4)C2=O)CC1 . Does its Ki lie strictly below 2 nM?
(A) Not met

(Q) Threshold test, Ki < 2 nM: C=C[C@@H]1C[C@]1(NC(=O)[C@@H]1C[C@@H]2CN1C(=O)[C@H](C1CCCC1)NC(=O)O[C@@H]1CCC[C@H]1CC/C=C/Cc1c(nc3ccccc3c1OCCCN1CCCC(C)(C)C1)O2)C(=O)NS(=O)(=O)C1CC1
(A) Not met

(Q) Does the reported Ki of C=C[C@@H]1C[C@]1(NC(=O)[C@@H]1C[C@@H]2CN1C(=O)[C@H](C1CCCC1)NC(=O)O[C@@H]1CCC[C@H]1CC/C=C/Cc1c(nc3ccccc3c1OCCn1cccn1)O2)C(=O)NS(=O)(=O)C1CC1 stay below 2 nM?
(A) Not met

(Q) Bench note: check whether C=C[C@@H]1C[C@]1(NC(=O)[C@@H]1C[C@@H]2CN1C(=O)[C@H](C1CCCCC1)NC(=O)O[C@@H]1C[C@H]1CCCCCc1c(nc3ccccc3c1OCCCN1CCC(F)(F)CC1)O2)C(=O)NS(=O)(=O)C1(C)CC1 shows Ki below 2 nM
(A) Not met

(Q) In the record for C=C[C@@H]1C[C@]1(NC(=O)[C@@H]1C[C@@H]2CN1C(=O)[C@H](C(C)(C)C)NC(=O)O[C@@H]1C[C@H]1CCCCCc1c(nc3ccccc3c1OCCCN(CCOC)CCOC)O2)C(=O)NS(=O)(=O)C1(C)CC1 , is Ki less than 2 nM?
(A) Met

(Q) Hello, is Ki of the following molecule strictly smaller than 2 nM? C=C[C@@H]1C[C@]1(NC(=O)[C@@H]1C[C@@H]2CN1C(=O)[C@H](C(C)(C)C)NC(=O)O[C@@H]1C[C@H]1CCCCCc1c(nc3ccccc3c1OC1CC3CCC(C1)N3C(=O)OC(C)(C)C)O2)C(=O)NS(=O)(=O)C1(C)CC1 (single isomer, unassigned) [Example 278]
(A) Not met

(Q) API: query returns whether the molecule falls strictly under 2 nM in Ki. Query: C=C[C@@H]1C[C@]1(NC(=O)[C@@H]1C[C@@H]2CN1C(=O)[C@H](C(C)(C)C)NC(=O)O[C@@H]1C[C@H]1CCCCCc1c(nc3ccccc3c1OCCCN1CCC(C)(O)C1)O2)C(=O)NS(=O)(=O)C1(C)CC1 (some centres unmarked)
(A) Met

(Q) Lab log: compare recorded Ki with 2 nM; is it strictly lower for C=C[C@@H]1C[C@]1(NC(=O)[C@@H]1C[C@@H]2CN1C(=O)[C@H](C1CCCCC1)NC(=O)O[C@@H]1C[C@H]1CCCCCc1c(nc3ccccc3c1OC1CCN(C(=O)OC(C)(C)C)CC1)O2)C(=O)NS(=O)(=O)C1(C)CC1 ?
(A) Not met

(Q) Is Ki strictly under 2 nM for the entry C=C[C@@H]1C[C@]1(NC(=O)[C@@H]1C[C@@H]2CN1C(=O)[C@H](C1CCCCC1)NC(=O)O[C@@H]1C[C@H]1CCCCCc1c(nc3ccccc3c1OC1CCOCC1)O2)C(=O)NS(=O)(=O)C1(C)CC1 ?
(A) Not met

(Q) Given C=C[C@@H]1C[C@]1(NC(=O)[C@@H]1C[C@@H]2CN1C(=O)[C@H](C1CCCC1)NC(=O)O[C@@H]1CCC[C@H]1CC/C=C/Cc1c(nc3ccccc3c1OCCCN1CCNC1=O)O2)C(=O)NS(=O)(=O)C1(C)CC1 , is recorded Ki strictly lower than 2 nM?
(A) Met

(Q) Does the reported Ki of C=C[C@@H]1C[C@]1(NC(=O)[C@@H]1C[C@@H]2CN1C(=O)[C@H](C1CCCCC1)NC(=O)O[C@@H]1C[C@H]1CCCCCc1c(nc3ccccc3c1OC1CCN(C)CC1)O2)C(=O)NS(=O)(=O)C1(C)CC1 stay below 2 nM?
(A) Met
